Readings of koff for the listed binders
- TARGET_OR_SYSTEM: T1, human IL6R (human, UniProt P08887 20-358, limits assumed)
- T1 construct: Antigen of the Biacore experiments
- T1 sequence (looked up): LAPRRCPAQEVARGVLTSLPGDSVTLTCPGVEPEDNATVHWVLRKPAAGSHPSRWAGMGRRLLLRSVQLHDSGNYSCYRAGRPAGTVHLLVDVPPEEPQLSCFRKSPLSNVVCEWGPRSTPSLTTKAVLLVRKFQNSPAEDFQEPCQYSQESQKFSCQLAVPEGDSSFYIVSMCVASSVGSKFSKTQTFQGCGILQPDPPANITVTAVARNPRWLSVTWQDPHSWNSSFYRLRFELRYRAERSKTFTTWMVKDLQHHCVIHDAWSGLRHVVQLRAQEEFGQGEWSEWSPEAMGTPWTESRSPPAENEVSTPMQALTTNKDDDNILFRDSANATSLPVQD
- ASSAY: SPR (Biacore), periplasmic extract

>  <BINDER>
IL6R65PMP7F4 (VHH, Also expressed in E. coli and purified via IMAC) VHH: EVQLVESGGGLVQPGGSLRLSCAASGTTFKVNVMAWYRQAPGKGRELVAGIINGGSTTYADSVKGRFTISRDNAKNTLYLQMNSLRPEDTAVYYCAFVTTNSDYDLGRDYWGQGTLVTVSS

>  <READOUT_UNITS>
s⁻¹

>  <koff>
0.00026

$$$$
>  <BINDER>
IL6R65PMP11D4 (VHH) VHH: EVQLVESGGGLVQPGGSLRLSCAASGTTFKINIMAWYRQAPGKGRELVAGVINSGTTNYADSVKGRFTISRDNAKNTLYLQMNSLRPEDTAVYYCAFVTTNSDYDLGRDYWGQGTLVTVSS

>  <READOUT_UNITS>
s⁻¹

>  <koff>
0.001

$$$$
>  <BINDER>
IL6R65PMP11C7 (VHH) VHH: EVQLVESGGGLVQPGGSLRLSCAASGTIFKVNIMAWYRQAPGKGRELVAAIITSGTTTYADSVKGRFTISRDNAKNTLYLQMNSLRPEDTAVYYCAFVTTNSDYDLGRDYWGQGTLVTVSS

>  <READOUT_UNITS>
s⁻¹

>  <koff>
0.00085

$$$$
>  <BINDER>
IL6R65PMP18G11 (VHH) VHH: EVQLVESGGGLVQPGGSLRLSCAASGSIFKINVMAWYRQAPGKGRELVAAIINGGTTSYADSVKGRFTISRDNAKNTLYLQMNSLRPEDTAVYYCAFVTTNSDYDLGRDYWGQGTLVTVSS

>  <READOUT_UNITS>
s⁻¹

>  <koff>
0.00033

$$$$
